// reported Kd per item
Biological target: full-length human RBBP4 (residues 1–425), recombinant (human, UniProt Q09028 1-425)
Sequence (Q09028 whole entry, the tested form may be a part): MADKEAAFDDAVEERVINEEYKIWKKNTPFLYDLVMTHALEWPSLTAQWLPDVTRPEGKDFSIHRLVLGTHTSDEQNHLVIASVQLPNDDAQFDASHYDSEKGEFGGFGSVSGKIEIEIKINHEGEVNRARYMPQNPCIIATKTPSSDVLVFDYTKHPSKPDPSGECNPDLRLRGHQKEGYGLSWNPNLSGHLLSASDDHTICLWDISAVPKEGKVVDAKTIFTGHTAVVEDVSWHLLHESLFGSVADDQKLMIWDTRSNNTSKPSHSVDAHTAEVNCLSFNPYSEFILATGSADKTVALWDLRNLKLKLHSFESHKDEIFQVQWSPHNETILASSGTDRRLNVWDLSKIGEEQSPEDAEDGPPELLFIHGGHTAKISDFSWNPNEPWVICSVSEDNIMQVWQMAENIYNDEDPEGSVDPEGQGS
Test: ITC

binder	Kd, µM
MRSKARARKLAK [human PRDM16 peptide (residues 1–12)]	3.15
MRSKGRARKLAT [human PRDM3 peptide (residues 1–12)]	2.96

// provenance: paper PMC6379669
